The measurements presented in this section are drawn from patent US5334606A.

Biological target: human neurokinin-1- receptor (NK1R) (Homo sapiens, UniProt P25103)
Sequence (P25103 whole entry): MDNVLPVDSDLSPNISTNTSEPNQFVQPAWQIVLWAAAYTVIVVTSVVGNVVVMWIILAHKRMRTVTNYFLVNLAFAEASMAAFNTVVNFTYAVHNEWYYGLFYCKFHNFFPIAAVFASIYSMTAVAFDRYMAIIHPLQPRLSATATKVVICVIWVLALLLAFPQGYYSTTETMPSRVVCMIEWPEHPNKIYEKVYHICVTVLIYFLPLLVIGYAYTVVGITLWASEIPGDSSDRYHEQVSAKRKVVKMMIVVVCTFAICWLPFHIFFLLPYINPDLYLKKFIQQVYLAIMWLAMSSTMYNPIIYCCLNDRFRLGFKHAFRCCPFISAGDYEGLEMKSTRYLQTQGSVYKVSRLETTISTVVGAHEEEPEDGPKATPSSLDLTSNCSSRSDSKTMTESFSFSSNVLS
For each record, write down the corresponding pIC50.
pIC50 is defined as minus the log10 of a concentration measured in mol/L.

Problem: Record request: pIC50 value, item O=C1OC(Cc2c[nH]c3ccccc23)C(=O)N1Cc1cc(C(F)(F)F)cc(C(F)(F)F)c1 (stereo not shown) [Example 1]
Solution: 7.68

Problem: Could you share which pIC50 value was measured for Cn1cc(CC2OC(=O)N(Cc3cc(C(F)(F)F)cc(C(F)(F)F)c3)C2=O)c2ccccc21 (stereo not shown) [Example 4c] ?
Solution: 6.52

Problem: Form field: reported pIC50 of Cn1cc(CC2(C)OC(=O)N(Cc3cc(C(F)(F)F)cc(C(F)(F)F)c3)C2=O)c2ccccc21 (stereo not shown) [Example 4a]
Solution: 7.85

Problem: Name the reported pIC50 value associated with the compound O=C1O[C@@H](Cc2c[nH]c3ccccc23)C(=O)N1Cc1cc(C(F)(F)F)cc(C(F)(F)F)c1 [Example 8]
Solution: 7.77

----------
Notes on pIC50 obtained with human neurokinin-1- receptor (NK1R) (Homo sapiens, UniProt P25103).
By convention, pIC50 is the negative base-10 log of a molar concentration.

Problem: Could you tell me which pIC50 is on file for CC1(Cc2c[nH]c3ccccc23)OC(=O)N(Cc2cc(C(F)(F)F)cc(C(F)(F)F)c2)C1=O (stereo not shown) ?
Solution: 6.85

Problem: What does the record list as pIC50 for COc1ccc2[nH]cc(CC3OC(=O)N(Cc4cc(C(F)(F)F)cc(C(F)(F)F)c4)C3=O)c2c1 (stereo not shown) ?
Solution: 6.52

Problem: What value of pIC50 has been recorded for this entry: CN1C(=O)N(Cc2cc(C(F)(F)F)cc(C(F)(F)F)c2)C(=O)C1Cc1c[nH]c2ccccc12 (stereo not shown)
Solution: 6.80
